# PBM binding z-score per record follows
# Test system: PXR homodimer (NR concentration 270 nM)
# protocol-details: PBM binding z-score (relative to random genomic background probes); higher = stronger binding; sequences stand for … in GC…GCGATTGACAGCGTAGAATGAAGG
Reply briefly: the number, and no unit.

Here are 4 sequences together with their reported answers.
[[record]]
input_sequence = "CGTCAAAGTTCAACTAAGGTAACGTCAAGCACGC"
quantitative_readout = 4.39

[[record]]
input_sequence = "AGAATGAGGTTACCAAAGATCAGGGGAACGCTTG"
quantitative_readout = -0.0783

[[record]]
input_sequence = "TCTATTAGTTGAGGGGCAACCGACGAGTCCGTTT"
quantitative_readout = 0.479

[[record]]
input_sequence = "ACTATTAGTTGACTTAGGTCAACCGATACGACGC"
quantitative_readout = 1.29


Proceeding to the next sequence to report its PBM binding z-score.
Ask | Would you mind telling me what PBM binding z-score value was observed for "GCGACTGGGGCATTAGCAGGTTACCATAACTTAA" ?
Reply | -0.13
